# Ki against UniProt P41594, merged from multiple literature sources
# Sequence (P41594 whole entry): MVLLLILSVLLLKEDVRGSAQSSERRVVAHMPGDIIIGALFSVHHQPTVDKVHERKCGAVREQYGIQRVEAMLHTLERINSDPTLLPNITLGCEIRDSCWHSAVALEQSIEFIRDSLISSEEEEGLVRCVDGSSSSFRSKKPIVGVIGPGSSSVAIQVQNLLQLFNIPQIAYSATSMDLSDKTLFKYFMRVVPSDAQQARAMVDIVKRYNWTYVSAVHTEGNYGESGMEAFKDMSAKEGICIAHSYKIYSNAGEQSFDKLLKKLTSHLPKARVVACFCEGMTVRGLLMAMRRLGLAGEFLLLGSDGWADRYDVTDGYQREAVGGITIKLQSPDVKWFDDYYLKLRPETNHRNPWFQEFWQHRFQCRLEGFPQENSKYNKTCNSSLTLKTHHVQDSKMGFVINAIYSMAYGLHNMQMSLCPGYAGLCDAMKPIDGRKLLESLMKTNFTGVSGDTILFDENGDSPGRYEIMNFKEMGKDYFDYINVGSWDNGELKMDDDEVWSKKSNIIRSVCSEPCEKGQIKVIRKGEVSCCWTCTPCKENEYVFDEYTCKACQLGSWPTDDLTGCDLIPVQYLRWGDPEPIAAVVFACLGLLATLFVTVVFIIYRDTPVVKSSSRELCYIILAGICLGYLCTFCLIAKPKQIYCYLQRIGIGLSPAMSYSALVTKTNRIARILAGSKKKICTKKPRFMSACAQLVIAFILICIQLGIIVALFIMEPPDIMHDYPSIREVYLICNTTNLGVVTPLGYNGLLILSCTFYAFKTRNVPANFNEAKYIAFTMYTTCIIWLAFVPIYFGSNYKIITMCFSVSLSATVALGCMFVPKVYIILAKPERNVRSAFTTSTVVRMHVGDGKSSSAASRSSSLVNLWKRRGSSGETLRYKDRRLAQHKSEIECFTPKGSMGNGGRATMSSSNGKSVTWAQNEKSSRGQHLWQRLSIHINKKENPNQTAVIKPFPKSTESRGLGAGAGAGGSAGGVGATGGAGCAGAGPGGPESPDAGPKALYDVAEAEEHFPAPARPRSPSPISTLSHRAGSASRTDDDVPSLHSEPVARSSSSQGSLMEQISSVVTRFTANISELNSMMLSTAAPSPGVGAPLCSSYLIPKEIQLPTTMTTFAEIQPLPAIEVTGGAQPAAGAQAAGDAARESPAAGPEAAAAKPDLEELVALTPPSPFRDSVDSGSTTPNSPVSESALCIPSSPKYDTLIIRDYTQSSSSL
Flag rule - Ki less than 3000 nM flags Yes; the remaining entries get No.

[[record]]
compound = "Cc1nn(-c2ccc(F)cc2F)c(=O)c2nocc12"
label = "No"

[[record]]
compound = "O=C1c2ccc(C#Cc3ccccc3)nc2CCN1C1CCCCC1"
label = "No"

[[record]]
compound = "Cc1cccc(NC(=O)c2ccc(-c3ccccc3)c(C#N)c2)n1"
label = "Yes"

[[record]]
compound = "O=C(Nc1ccccc1Cl)c1cccc2oc(=O)[nH]c12"
label = "No"

[[record]]
compound = "Cc1cc(NC(=O)c2cccc3oc(=O)[nH]c23)ccn1"
label = "No"

[[record]]
compound = "O=C1CC(c2nc(-c3cccc(Cl)c3)no2)CN1c1ccc(F)cc1 (single isomer, unassigned; (-))"
label = "Yes"

[[record]]
compound = "N#Cc1cccc(C(=O)NC2CCCC(NC(=O)c3ccccn3)C2)c1 (racemic)"
label = "Yes"

[[record]]
compound = "O=C(N[C@H]1CCC[C@H](NC(=O)c2cccc(Cl)c2)C1)c1ccc(F)cc1 (relative stereo)"
label = "Yes"

[[record]]
compound = "O=[N+]([O-])c1cccnc1N1CCC(=CC#Cc2cccc(Cl)c2)CC1"
label = "Yes"

[[record]]
compound = "O=C1c2ccc(C#Cc3ccccn3)nc2CCN1C1CCCCC1"
label = "Yes"

[[record]]
compound = "Cc1ccc([N+](=O)[O-])c(N2CCN(C(=O)c3cccc(-c4ccccc4)c3)CC2)n1"
label = "No"

[[record]]
compound = "O=C(Nc1ccccn1)c1cccc2oc(=O)[nH]c12"
label = "Yes"

[[record]]
compound = "O=C1c2ccc(C#Cc3ccccc3Cl)nc2CCN1C1CCCC1"
label = "No"

[[record]]
compound = "CCOC(=O)N1CCC(=CC#Cc2cccc(C)c2)CC1"
label = "Yes"

[[record]]
compound = "O=C(Nc1cccc(Cl)c1)c1cccc2oc(=O)[nH]c12"
label = "Yes"

[[record]]
compound = "O=C(Nc1ccccc1)c1cccc2oc(=O)[nH]c12"
label = "Yes"

[[record]]
compound = "O=C1c2ccc(C#Cc3cccc(Cl)c3)nc2CCN1C1CCCCC1"
label = "No"

[[record]]
compound = "O=C1COc2cccc(C(=O)Nc3cccc(Cl)c3)c2N1"
label = "Yes"

[[record]]
compound = "Cc1nn(-c2cccc([N+](=O)[O-])c2)c(=O)c2nocc12"
label = "No"

[[record]]
compound = "Cc1ccccc1C#Cc1ccc2c(n1)CCN(C)C2=O"
label = "No"

[[record]]
compound = "Cc1cccc(C#CC=C2CCN(c3ccccc3)CC2)n1"
label = "Yes"

[[record]]
compound = "Cc1ccccc1C#Cc1ccc2c(n1)CCN(C1CCCC1)C2=O"
label = "No"

[[record]]
compound = "CC(C)N1CCc2nc(C#Cc3cccs3)ccc2C1=O"
label = "Yes"

[[record]]
compound = "O=C1c2ccc(C#Cc3cccnc3)nc2CCN1C1CCCCC1"
label = "No"

[[record]]
compound = "COc1cccc(C#Cc2ccc3c(n2)CCN(C2CCCCC2)C3=O)c1"
label = "No"

[[record]]
compound = "Cc1ccc(C#Cc2ccc3c(n2)CCN(C)C3=O)cc1"
label = "No"

[[record]]
compound = "CNc1cc(-c2csc(N(C)C(=O)c3ccc(F)cc3)n2)ncn1"
label = "No"

[[record]]
compound = "Cc1ccc(S(=O)(=O)N2CCC(=CC#Cc3cccc(C)n3)CC2)cc1"
label = "Yes"

[[record]]
compound = "Cc1cccc(C#Cc2ccc3c(n2)CCN(C2CCCC2)C3=O)c1"
label = "Yes"

[[record]]
compound = "Cc1nn(-c2ccc(F)cc2)c(=O)c2nocc12"
label = "No"

